# test-details: qHTS of pediatric cancer cell lines to identify multiple opportunities for drug repurposing: Primary screen for NB1643 cells (AID 1347099); note: nearly all actives have a fitted effect of over 50% in size; note: potency is the fitted concentration of half-maximal effect
# recorded-conditions: NB1643 neuroblastoma viability, CellTiter-Glo luminescence, 48 h; series mostly up to 46 µM
Inconclusive results are not listed. Calls of active or inactive are those of the source. Calls come from the whole dose curve; as a rule, active = well fitted cell-killing curve with a large enough effect; inconclusive = small, poorly fitted or top-dose-only effect; inactive = no such curve, though single readings can be large or run the other way.
assay-metric: Potency

[
  {
    "molecule": "COc1ccc(-c2oc3c(CC=C(C)C)c(O)cc(O)c3c(=O)c2O)cc1",
    "assay-metric": "Potency",
    "val": "14.8 µM (active)"
  },
  {
    "molecule": "CNC(=O)c1cc(Oc2ccc(NC(=O)Nc3ccc(Cl)c(C(F)(F)F)c3)c(F)c2)ccn1",
    "assay-metric": "Potency",
    "val": "13.2 µM (active)"
  },
  {
    "molecule": "NC1(C(=O)N[C@@H](CCO)c2ccc(Cl)cc2)CCN(c2ncnc3[nH]ccc23)CC1",
    "assay-metric": "Potency",
    "val": "1.87 µM (active)"
  },
  {
    "molecule": "CCC[C@@H](NC(=O)[C@@H]1[C@H]2CCC[C@@H]2CN1C(=O)[C@@H](NC(=O)[C@@H](NC(=O)c1cnccn1)C1CCCCC1)C(C)(C)C)C(=O)C(=O)NC1CC1",
    "assay-metric": "Potency",
    "val": "inactive"
  },
  {
    "molecule": "CCC(=C(c1ccc(O)cc1)c1ccc(OCCNC)cc1)c1ccccc1",
    "assay-metric": "Potency",
    "val": "23.5 µM (active)"
  },
  {
    "molecule": "CC(C)CN(C[C@@H](O)[C@H](Cc1ccccc1)NC(=O)O[C@H]1CO[C@H]2OCC[C@H]21)S(=O)(=O)c1ccc(N)cc1",
    "assay-metric": "Potency",
    "val": "18.7 µM (active)"
  },
  {
    "molecule": "C=C[C@@H]1CN2CCC1C[C@@H]2C(O)c1ccnc2ccc(OC)cc12 (stereo partly drawn)",
    "assay-metric": "Potency",
    "val": "inactive"
  },
  {
    "molecule": "C[C@H](c1ccc(F)cc1CCCC(=O)O)N(c1cc(F)ccc1F)S(=O)(=O)c1ccc(Cl)cc1",
    "assay-metric": "Potency",
    "val": "14.8 µM (active)"
  }
]
